- METHOD: Pharmacokinetics of YH18968 in normal mice
- Format: in vivo, C57BL/6J mice
- TEST_CONDITIONS: male, C57BL/6J, mouse, plasma, po, 1 mg/kg
ENDPOINT: half-life (h)

[[record]]
molecule = "CC(C)c1nc(N2CCN(c3ncc(-c4ccc(-n5cnn([C@H]6CCOC6)c5=O)c(F)c4)cc3C#N)CC2)no1 [YH18968]"
unit_label = "h"
experimental_result = 3.1


---

- METHOD: Pharmacokinetics of YH18968 in normal mice
- Type: in vivo, C57BL/6J mice
- TEST_CONDITIONS: male, C57BL/6J, mouse, plasma, po, 1 mg/kg
ENDPOINT: AUC(0-t) (ng·h/mL)

[[record]]
compound = "CC(C)c1nc(N2CCN(c3ncc(-c4ccc(-n5cnn([C@H]6CCOC6)c5=O)c(F)c4)cc3C#N)CC2)no1 [YH18968]"
endpoint = "AUC(0-t)"
unit_label = "ng·h/mL"
experimental_result = 550


---

- METHOD: Pharmacokinetics of YH18968 in normal mice
- Type: in vivo, C57BL/6J mice
- TEST_CONDITIONS: male, C57BL/6J, mouse, plasma, iv, 1 mg/kg
ENDPOINT: AUC(0-t) (ng·h/mL)

[[record]]
compound_structure = "CC(C)c1nc(N2CCN(c3ncc(-c4ccc(-n5cnn([C@H]6CCOC6)c5=O)c(F)c4)cc3C#N)CC2)no1"
experimental_result = 1380

